B1: FAM189A2 (parent)
chain: GSEAAVIPLDLGCTQVTQDGDIPN

Variants of: B1
Assay Name: protein stability index of a GFP-peptide fusion (GPS, HEK-293T) (PSI 1-6); higher = more stable;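 further: lentivirally expressed fusions sorted by FACS into six bins by GFP to DsRed ratio, PSI derived from sequencing read proportions per bin multiplied by bin number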
Condition Details: c terminus: a fixed tail appended
Entry flag: Met if protein stability index reaches 5; Not met if it does not.

The examples below pair each entry with its known result.
# check: protein stability index of D10G is greater than or equal to 5 Met

# check: protein stability index of V6Y is greater than or equal to 5 Met

# check: protein stability index of T17R is greater than or equal to 5 Met

# check: protein stability index of I22L is greater than or equal to 5 Met

# check: protein stability index of S2P is greater than or equal to 5 Met

Further cases:
# check: protein stability index of Q18S is greater than or equal to 5 Met

# check: protein stability index of E3W is greater than or equal to 5 Not met

# check: protein stability index of I7T is greater than or equal to 5 Met

# check: protein stability index of A4K is greater than or equal to 5 Met

# check: protein stability index of G12K is greater than or equal to 5 Met

# check: protein stability index of T14L is greater than or equal to 5 Met

# check: protein stability index of G20C is greater than or equal to 5 Met

# check: protein stability index of I22D is greater than or equal to 5 Met

# check: protein stability index of G1V is greater than or equal to 5 Met
